B1: library; numbered along this chain (parent)
chain: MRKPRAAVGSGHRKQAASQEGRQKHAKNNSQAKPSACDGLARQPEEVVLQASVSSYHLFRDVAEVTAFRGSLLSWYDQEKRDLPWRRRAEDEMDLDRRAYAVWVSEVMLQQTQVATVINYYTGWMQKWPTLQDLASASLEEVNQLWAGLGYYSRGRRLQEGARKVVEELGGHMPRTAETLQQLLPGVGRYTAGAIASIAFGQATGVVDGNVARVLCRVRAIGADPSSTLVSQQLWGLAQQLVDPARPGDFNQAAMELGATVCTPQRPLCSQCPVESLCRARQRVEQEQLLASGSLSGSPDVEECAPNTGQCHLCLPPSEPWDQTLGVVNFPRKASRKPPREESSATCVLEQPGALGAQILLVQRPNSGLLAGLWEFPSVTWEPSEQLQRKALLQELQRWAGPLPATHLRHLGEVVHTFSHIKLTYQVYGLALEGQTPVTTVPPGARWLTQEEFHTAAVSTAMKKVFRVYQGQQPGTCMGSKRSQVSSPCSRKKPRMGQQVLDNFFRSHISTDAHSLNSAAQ

# Variants of: B1
# method: 8OG:A repair function score (normalized; synonymous = 0, nonsense = -1) (normalized log-likelihood score); higher = more repair activity (WT-like);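 note: cells sorted at 72 h after reporter transfection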
# run.parameters: with 8OG:A DNA repair reporter (GFP) in HEK-293 MUTYH KO cells
Assign classes using reported 8OG:A repair function score values and the ranges low interval (below -0.3), middle interval (-0.3 to below -0.03), high interval (-0.03 or more), please.

Could you tell me which band A220W belongs to?
low interval

Could you tell me which band N119L belongs to?
middle interval

Could you tell me which band D133E belongs to?
middle interval

Could you tell me which band Q286S belongs to?
high interval

Could you tell me which band H454G belongs to?
middle interval

Could you tell me which band L241K belongs to?
low interval

Could you tell me which band I509V belongs to?
high interval

Could you tell me which band Q113E belongs to?
low interval

Could you tell me which band M173S belongs to?
low interval

Could you tell me which band R87C belongs to?
middle interval

Could you tell me which band A63E belongs to?
high interval

Could you tell me which band Q310L belongs to?
high interval

Could you tell me which band L131N belongs to?
middle interval

Could you tell me which band Y121P belongs to?
low interval

Could you tell me which band M93F belongs to?
high interval

Could you tell me which band G258K belongs to?
low interval

Could you tell me which band T346L belongs to?
high interval

Could you tell me which band H514I belongs to?
high interval

Could you tell me which band A135R belongs to?
middle interval

Could you tell me which band P264V belongs to?
middle interval

Could you tell me which band Q111S belongs to?
middle interval

Could you tell me which band P365F belongs to?
middle interval

Could you tell me which band F453E belongs to?
low interval

Could you tell me which band N329R belongs to?
middle interval

Could you tell me which band F68M belongs to?
middle interval

Could you tell me which band A371C belongs to?
middle interval

Could you tell me which band L516P belongs to?
high interval

Could you tell me which band C489Y belongs to?
high interval

Could you tell me which band G293W belongs to?
high interval

Could you tell me which band T455C belongs to?
high interval

Could you tell me which band D77S belongs to?
middle interval

Could you tell me which band N503W belongs to?
high interval

Could you tell me which band W75C belongs to?
low interval

Could you tell me which band Q271H belongs to?
high interval

Could you tell me which band T436M belongs to?
high interval

Could you tell me which band G188F belongs to?
low interval

Could you tell me which band Q239D belongs to?
high interval

Could you tell me which band P84E belongs to?
middle interval

Could you tell me which band T380A belongs to?
high interval

Could you tell me which band T455A belongs to?
middle interval

Could you tell me which band S343M belongs to?
high interval

Could you tell me which band N251A belongs to?
low interval

Could you tell me which band G326K belongs to?
middle interval

Could you tell me which band D249Y belongs to?
low interval

Could you tell me which band A280K belongs to?
low interval

Could you tell me which band L355Q belongs to?
middle interval

Could you tell me which band V142A belongs to?
low interval

Could you tell me which band P474C belongs to?
high interval

Could you tell me which band D133P belongs to?
low interval

Could you tell me which band S153W belongs to?
middle interval

Could you tell me which band W103S belongs to?
low interval

Could you tell me which band P244K belongs to?
high interval

Could you tell me which band D82K belongs to?
middle interval

Could you tell me which band G444V belongs to?
low interval

Could you tell me which band G475M belongs to?
middle interval

Could you tell me which band H57G belongs to?
low interval

Could you tell me which band E285I belongs to?
high interval

Could you tell me which band K333Q belongs to?
middle interval

Could you tell me which band R217C belongs to?
low interval

Could you tell me which band G171E belongs to?
low interval

Could you tell me which band S515Y belongs to?
high interval

Could you tell me which band E167P belongs to?
low interval

Could you tell me which band R81K belongs to?
middle interval

Could you tell me which band D224P belongs to?
low interval

Could you tell me which band R364P belongs to?
low interval

Could you tell me which band F68E belongs to?
low interval

Could you tell me which band L325Y belongs to?
middle interval

Could you tell me which band R364E belongs to?
low interval

Could you tell me which band Q144M belongs to?
high interval

Could you tell me which band Q43Y belongs to?
middle interval

Could you tell me which band Q132T belongs to?
high interval

Could you tell me which band L448R belongs to?
low interval

Could you tell me which band R69G belongs to?
middle interval

Could you tell me which band T346C belongs to?
high interval

Could you tell me which band L396C belongs to?
middle interval

Could you tell me which band K390P belongs to?
middle interval

These entries and their values trace back to the supplement of paper PMC11908140.
